SYSTEM NAME: HDAC11 (Homo sapiens, UniProt Q96DB2)
Sequence (Q96DB2 whole entry): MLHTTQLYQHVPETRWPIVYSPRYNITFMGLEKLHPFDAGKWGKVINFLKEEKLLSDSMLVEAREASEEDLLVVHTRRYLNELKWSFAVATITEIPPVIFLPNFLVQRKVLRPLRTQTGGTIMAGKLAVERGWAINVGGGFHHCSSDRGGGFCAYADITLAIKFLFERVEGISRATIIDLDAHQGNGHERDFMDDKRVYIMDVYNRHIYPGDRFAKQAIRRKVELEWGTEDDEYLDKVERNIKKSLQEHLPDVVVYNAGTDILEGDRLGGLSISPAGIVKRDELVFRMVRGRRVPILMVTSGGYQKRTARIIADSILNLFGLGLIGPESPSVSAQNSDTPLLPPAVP
pIC50: −log10 of the molar value.

| COMPOUND | SYSTEM NAME | pIC50 |
| --- | --- | --- |
| Cc1cc(C)cc(C(=O)NOCCCCCC(=O)NO)c1 [19i] | HDAC11 (Homo sapiens, UniProt Q96DB2) | 3.96 |

====

System: UC cell lines (VM-CUB1, UM-UC-3, 639-V)
PROTOCOL DETAILS: MTT viability assay, UC cell lines taken together
Assay type: cell-based, human
RUN CONDITIONS: across VM-CUB1, UM-UC-3, 639-V; MTT, 72 h

| COMPOUND | CC50 |
| --- | --- |
| Cc1cc(C)cc(C(=O)NOCCCCCC(=O)NO)c1 [19i] | ~1000 nM |

====

System: VM-CUB1-HDAC4
PROTOCOL DETAILS: MTT viability assay (CC50)
Format: cell-based, human
RUN CONDITIONS: VM-CUB-HDAC4 (HDAC4-overexpressing), 72 h
ASSAY READOUT: CC50 (nM)

| COMPOUND | SYSTEM NAME | ASSAY READOUT | UNIT SPEC | OBS VALUE |
| --- | --- | --- | --- | --- |
| Cc1cc(C)cc(C(=O)NOCCCCCC(=O)NO)c1 [19i] | VM-CUB1-HDAC4 | CC50 | nM | 630 |

====

Tested on: three UCCs (VM-CUB1, UM-UC-3, 639-V)
PROTOCOL DETAILS: High-content analysis-based fluorescent live/dead assay, three UCCs together
Format: cell-based, human
RUN CONDITIONS: HCA live/dead assay, 72 h

| COMPOUND | CC50 |
| --- | --- |
| Cc1cc(C)cc(C(=O)NOCCCCCC(=O)NO)c1 [19i] | < 1000 nM |

====

Target sequence: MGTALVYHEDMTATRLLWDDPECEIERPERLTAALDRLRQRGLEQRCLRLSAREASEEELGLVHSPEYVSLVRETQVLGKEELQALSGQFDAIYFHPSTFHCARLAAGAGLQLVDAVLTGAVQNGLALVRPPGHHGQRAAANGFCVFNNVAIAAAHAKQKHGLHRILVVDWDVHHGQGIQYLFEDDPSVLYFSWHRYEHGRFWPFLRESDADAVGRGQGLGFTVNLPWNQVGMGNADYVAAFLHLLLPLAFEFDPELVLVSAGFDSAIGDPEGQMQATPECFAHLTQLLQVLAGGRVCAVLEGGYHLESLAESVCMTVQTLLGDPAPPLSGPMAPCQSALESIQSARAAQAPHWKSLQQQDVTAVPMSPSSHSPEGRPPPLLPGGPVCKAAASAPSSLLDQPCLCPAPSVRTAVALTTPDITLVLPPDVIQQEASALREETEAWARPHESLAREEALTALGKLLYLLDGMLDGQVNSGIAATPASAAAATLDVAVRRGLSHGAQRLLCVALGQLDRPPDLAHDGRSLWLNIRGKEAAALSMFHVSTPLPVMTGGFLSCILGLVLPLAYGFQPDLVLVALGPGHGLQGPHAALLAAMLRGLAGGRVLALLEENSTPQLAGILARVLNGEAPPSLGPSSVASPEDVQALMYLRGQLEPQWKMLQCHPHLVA

| COMPOUND | UNIT SPEC | IC50 |
| --- | --- | --- |
| Cc1cc(C)cc(C(=O)NOCCCCCC(=O)NO)c1 [19i] | nM | 491 |

====

Test system: 639-V
PROTOCOL DETAILS: MTT viability assay (CC50)
Format: cell-based, human
RUN CONDITIONS: 72 h of incubation
Entries and their CC50

| MOLECULE | CC50 [µM] |
| --- | --- |
| Cc1cc(C)cc(C(=O)NOCCCCCC(=O)NO)c1 [19i] | 1.03 |
| O=C(NCC1(c2nc(-c3ccccc3)cs2)CCOCC1)c1cccc(-c2noc(C(F)(F)F)n2)c1 [TMP269] | 39.4 |

====

Tested on: VM-CUB1
PROTOCOL DETAILS: MTT viability assay (CC50)
Format: cell-based, human
RUN CONDITIONS: VMCub1, MTT, 48 h

| MOLECULE | UNIT SPEC | CC50 |
| --- | --- | --- |
| O=C(NCC1(c2nc(-c3ccccc3)cs2)CCOCC1)c1cccc(-c2noc(C(F)(F)F)n2)c1 [TMP269] | µM | 115 |

====

SYSTEM NAME: HDAC2 (Homo sapiens, UniProt Q92769)
Sequence (Q92769 whole entry): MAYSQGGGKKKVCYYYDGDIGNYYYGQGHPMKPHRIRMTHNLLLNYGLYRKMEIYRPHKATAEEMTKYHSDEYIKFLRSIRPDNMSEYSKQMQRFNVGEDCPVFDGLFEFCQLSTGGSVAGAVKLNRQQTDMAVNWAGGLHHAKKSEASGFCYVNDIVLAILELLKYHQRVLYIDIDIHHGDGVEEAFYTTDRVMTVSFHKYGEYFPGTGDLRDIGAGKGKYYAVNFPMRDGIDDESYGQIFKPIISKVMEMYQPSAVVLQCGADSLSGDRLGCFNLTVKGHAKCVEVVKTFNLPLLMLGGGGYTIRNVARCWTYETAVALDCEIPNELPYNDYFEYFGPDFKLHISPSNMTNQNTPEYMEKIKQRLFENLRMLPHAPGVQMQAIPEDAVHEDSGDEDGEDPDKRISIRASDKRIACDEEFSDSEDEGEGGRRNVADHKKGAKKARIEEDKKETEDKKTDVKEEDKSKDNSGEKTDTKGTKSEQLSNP
pIC50: −log10 of the molar value.
ASSAY READOUT: pIC50

| MOLECULE | OBS VALUE |
| --- | --- |
| Cc1cc(C)cc(C(=O)NOCCCCCC(=O)NO)c1 [19i] | 6.40 |

====

Tested on: UM-UC-3
PROTOCOL DETAILS: MTT viability assay (CC50)
Type: cell-based, human
RUN CONDITIONS: UM-UC-3, MTT, 24 h

| SMI | UNIT SPEC | CC50 |
| --- | --- | --- |
| O=C(NCC1(c2nc(-c3ccccc3)cs2)CCOCC1)c1cccc(-c2noc(C(F)(F)F)n2)c1 | µM | 110 |

====

System: UM-UC-3-LV
PROTOCOL DETAILS: MTT viability assay (CC50)
Format: cell-based, human
RUN CONDITIONS: UM-UC-3-LV (empty vector), 72 h
ASSAY READOUT: CC50 (nM)

| MOLECULE | SYSTEM NAME | OBS VALUE |
| --- | --- | --- |
| Cc1cc(C)cc(C(=O)NOCCCCCC(=O)NO)c1 [19i] | UM-UC-3-LV | 790 |

====

Test system: UM-UC-3
PROTOCOL DETAILS: MTT viability assay (CC50)
Format: cell-based, human
RUN CONDITIONS: UM-UC-3, MTT, 48 h

| SMI | CC50 (µM) |
| --- | --- |
| O=C(NCC1(c2nc(-c3ccccc3)cs2)CCOCC1)c1cccc(-c2noc(C(F)(F)F)n2)c1 | 73.8 |

====

Tested on: HBLAK
PROTOCOL DETAILS: High-content analysis-based fluorescent live/dead assay
Format: cell-based, human
RUN CONDITIONS: HCA, 72 h

| SMI | CC50 |
| --- | --- |
| O=C(NCC1(c2nc(-c3ccccc3)cs2)CCOCC1)c1cccc(-c2noc(C(F)(F)F)n2)c1 | 10.6 µM |

====

SYSTEM NAME: UniProt Q9UBN7
Sequence (Q9UBN7 1-1215): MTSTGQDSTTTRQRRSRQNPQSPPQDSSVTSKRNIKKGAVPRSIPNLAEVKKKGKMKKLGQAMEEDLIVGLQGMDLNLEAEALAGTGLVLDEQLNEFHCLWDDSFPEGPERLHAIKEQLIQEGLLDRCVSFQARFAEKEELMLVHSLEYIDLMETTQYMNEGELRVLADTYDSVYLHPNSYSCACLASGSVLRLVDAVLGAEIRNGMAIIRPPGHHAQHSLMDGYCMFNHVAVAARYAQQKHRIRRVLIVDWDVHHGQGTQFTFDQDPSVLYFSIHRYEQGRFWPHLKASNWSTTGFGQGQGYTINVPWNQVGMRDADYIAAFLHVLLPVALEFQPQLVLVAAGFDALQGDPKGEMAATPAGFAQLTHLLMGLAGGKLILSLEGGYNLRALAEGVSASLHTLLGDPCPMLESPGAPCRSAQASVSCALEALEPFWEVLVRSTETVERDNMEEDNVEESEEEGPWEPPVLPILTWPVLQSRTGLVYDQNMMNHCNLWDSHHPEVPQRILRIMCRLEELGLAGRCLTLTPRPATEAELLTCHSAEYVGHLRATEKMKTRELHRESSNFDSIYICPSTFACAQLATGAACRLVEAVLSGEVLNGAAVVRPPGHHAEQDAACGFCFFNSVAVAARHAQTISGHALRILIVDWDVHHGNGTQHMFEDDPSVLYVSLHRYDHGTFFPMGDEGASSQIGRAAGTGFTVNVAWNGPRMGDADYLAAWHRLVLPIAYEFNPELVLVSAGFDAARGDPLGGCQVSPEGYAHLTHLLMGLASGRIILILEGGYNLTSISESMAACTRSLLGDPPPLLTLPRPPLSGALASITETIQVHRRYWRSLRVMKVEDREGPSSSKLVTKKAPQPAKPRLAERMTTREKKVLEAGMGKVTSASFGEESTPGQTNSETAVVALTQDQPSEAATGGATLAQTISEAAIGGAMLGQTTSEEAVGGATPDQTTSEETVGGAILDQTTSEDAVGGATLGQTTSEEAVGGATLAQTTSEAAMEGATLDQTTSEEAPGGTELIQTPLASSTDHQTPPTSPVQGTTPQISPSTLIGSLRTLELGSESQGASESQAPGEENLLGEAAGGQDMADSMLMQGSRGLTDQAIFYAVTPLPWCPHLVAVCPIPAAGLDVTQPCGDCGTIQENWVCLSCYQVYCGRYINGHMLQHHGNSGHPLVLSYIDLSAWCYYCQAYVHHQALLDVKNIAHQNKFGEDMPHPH

| COMPOUND | IC50 / nM |
| --- | --- |
| Cc1cc(C)cc(C(=O)NOCCCCCC(=O)NO)c1 [19i] | 32 |
